Biological target: Protein translocase subunit SecA (Escherichia coli (strain K12))
Experiment: Assay to Identify E. coli SecA ATPase Inhibitors
Format: functional
Parameters: scale not given: direction of the effect not stated beside the values
Details: 30 µM
Potency and affinity values are given separately.
readout.type: Percent Effect (%)
# output: bare number, implied unit %

Ask: Quickly give me recorded Percent Effect for Cc1nc(C2CCN(C(=O)c3ccc(=O)n(C)c3)CC2)c2sccn12
Reply: -2.51

Ask: Tell me its Percent Effect given Cc1cc(=O)n(CC(=O)Nc2ccc(C(N)=O)cc2)nc1C as the entry.
Reply: -0.496

Ask: Note Percent Effect for the compound shown: Cc1cc(C)n(C2CCCN(C(=O)c3ccc(NC4CC4)nc3)C2)n1 (configuration not stated)
Reply: -6.18

Ask: Note Percent Effect for the compound shown: NC(=O)CCN1CCC(C(=O)c2cc(F)ccc2F)CC1
Reply: -1.09

Ask: Using the record for COc1ccc(C2(CNC(C)c3nnc(C)o3)CCCCC2)cc1 (configuration not stated) , state its measured Percent Effect.
Reply: -1.33

Ask: Answer with reported Percent Effect of Cc1ccc(NC2CCN(C(=O)c3cccc(F)c3F)CC2)nn1
Reply: 0.567

Ask: Give recorded Percent Effect. Cn1ncc2c(=O)[nH]c(CN3CCCC3CC3CCCCC3)nc21 (configuration not stated)
Reply: -1.58

Ask: Fill in reported Percent Effect for this entry: CCn1ccnc1CN1CCN(C(C)C(=O)N2CCC(C)CC2)CC1 (configuration not stated)
Reply: -2.02

Ask: Specify measured Percent Effect for CCC1=N[C@@]2(CC[C@@H]3CN(Cc4ccc(Cl)cc4)C[C@@H]32)C(=O)N1C .
Reply: -4.15

Ask: Please indicate Percent Effect recorded for CCn1cnnc1C1CCN(C(=O)c2cnc(C3CC3)s2)CC1
Reply: -2.76

Ask: State its Percent Effect: CN(C)CCCNC(=O)CNC(=O)N1CCc2c([nH]c3ccccc23)C1
Reply: -6.34

Ask: Quick one: give measured Percent Effect for Cc1cnn(CCNCc2csc(C)n2)c1
Reply: -1.46

Ask: Return Percent Effect for the following compound: Cc1ccccc1-c1cncc(C2CCN(C(=O)CN(C)C)CC2)n1
Reply: -4.06

Ask: Dear colleague, please send me the reported Percent Effect for CC(c1cccnc1)N(C)Cc1csc(-c2ccccn2)n1 (configuration not stated) when you can.
Reply: -7.3

Ask: Please report the measured Percent Effect for CC(=O)N1CCN(c2ccc3ccc(C(=O)NC4CCCC4)cn23)CC1
Reply: -2.65

Ask: Please look at this compound and report its Percent Effect: CC(O)CN1CCN(C(=O)c2cccn2Cc2ccncc2)CC1 (configuration not stated)
Reply: -5.17

Ask: Return the recorded Percent Effect value; entry: Cc1ccc(NC(=O)c2n[nH]c(-n3cnnc3)n2)cc1C
Reply: -5.16

Ask: Give the value of Percent Effect reported for the following: O=C(NCc1ccccc1F)N1CCC(C2OCCO2)CC1
Reply: -3.95

Ask: Given the compound CCn1cnnc1CNC(=O)NC(C)c1cccs1 (configuration not stated) , write its reported Percent Effect.
Reply: -1.87

Ask: State its Percent Effect: c1cnnc(NCC2CN(Cc3cccc4c3OCCO4)CCO2)c1 (configuration not stated)
Reply: -3.5

Ask: Check the records and state Percent Effect for CCN(CC)c1ccc(C(=O)N(C)Cc2c(C)noc2C)cn1
Reply: -4.04

Ask: Please indicate Percent Effect recorded for CNC(=O)C1Cn2ccnc2C2(CCN(Cc3cccc(C)n3)CC2)O1 (configuration not stated)
Reply: -2.65
